Recorded apparent KD of MS2 coat protein for the following sequences
Tested on: MS2 coat protein
Experiment: apparent KD of MS2 coat protein; designed switch direction (-1 OFF switch, 1 ON switch): 1; higher = weaker reporter binding
Conditions: input ligand: FMN 200 uM
readout: apparent KD of MS2 coat protein (nM)

>>> endpoint_result("UCGAGCGUACUUGCAGACAUGAGGAUCACCCAUGUAAAUGGGAAGGAUAUGGUACCGUUUCGGUACCAGAAGGUCCUACGUGCU [salish99_SSNG3_r04_305] (Eterna round: R96, puzzle: Same State NG 3)")
325
>>> endpoint_result("GCUAGGAAAUAAGCCAACAUGAGGAUCACCCAUGUAUGUUGGUAGGAUAUCGUAUGCAAAGCAUACGAGAAGGGCUAACCUAGC [Mat - Same State NG 3 - JL Mod - D71] (Eterna round: R96, puzzle: Same State NG 3)")
69.5
>>> endpoint_result("GCAGGACGAUAAUAUAUCUCACAUGAGGAUCACCCAUGUCGUGAGGAUAUGGAUCCUAAUUGGAUCCAGAAGGCAUGGUCCUGC [Fiskers NG3ss - 31] (Eterna round: R96, puzzle: Same State NG 3)")
18.5
>>> endpoint_result("AAAAUAAAUGCGAAAAUUAACCGCAACUGACAUGAGGAUCACCCAUGUGCUUCAAGCUCAGGCAUCUCUUAUCGUCA [Maares] (Eterna round: R96, puzzle: Sensor for hsa-mir-208a)")
112
>>> endpoint_result("AUUUUUAAUGCAGGAUAUGAUUAACAUGAGGAUCACCCAUGUGGUGUUGUGAGUAAGGAGAGUGAUCAGAAGGGCAUUUUUUCU [JMF's solution 88] (Eterna round: R96, puzzle: Same State NG 2)")
340
